- experimental-system: TMEM16A (ANO1) (Mus musculus)
- Construct: We subcloned the coding region of the cDNA into pEGFP-N3 vector; expressed in transfected cells; host or cells: HEK293 cells
- Sequence (Q8BHY3 1-956 isoform Q8BHY3-2): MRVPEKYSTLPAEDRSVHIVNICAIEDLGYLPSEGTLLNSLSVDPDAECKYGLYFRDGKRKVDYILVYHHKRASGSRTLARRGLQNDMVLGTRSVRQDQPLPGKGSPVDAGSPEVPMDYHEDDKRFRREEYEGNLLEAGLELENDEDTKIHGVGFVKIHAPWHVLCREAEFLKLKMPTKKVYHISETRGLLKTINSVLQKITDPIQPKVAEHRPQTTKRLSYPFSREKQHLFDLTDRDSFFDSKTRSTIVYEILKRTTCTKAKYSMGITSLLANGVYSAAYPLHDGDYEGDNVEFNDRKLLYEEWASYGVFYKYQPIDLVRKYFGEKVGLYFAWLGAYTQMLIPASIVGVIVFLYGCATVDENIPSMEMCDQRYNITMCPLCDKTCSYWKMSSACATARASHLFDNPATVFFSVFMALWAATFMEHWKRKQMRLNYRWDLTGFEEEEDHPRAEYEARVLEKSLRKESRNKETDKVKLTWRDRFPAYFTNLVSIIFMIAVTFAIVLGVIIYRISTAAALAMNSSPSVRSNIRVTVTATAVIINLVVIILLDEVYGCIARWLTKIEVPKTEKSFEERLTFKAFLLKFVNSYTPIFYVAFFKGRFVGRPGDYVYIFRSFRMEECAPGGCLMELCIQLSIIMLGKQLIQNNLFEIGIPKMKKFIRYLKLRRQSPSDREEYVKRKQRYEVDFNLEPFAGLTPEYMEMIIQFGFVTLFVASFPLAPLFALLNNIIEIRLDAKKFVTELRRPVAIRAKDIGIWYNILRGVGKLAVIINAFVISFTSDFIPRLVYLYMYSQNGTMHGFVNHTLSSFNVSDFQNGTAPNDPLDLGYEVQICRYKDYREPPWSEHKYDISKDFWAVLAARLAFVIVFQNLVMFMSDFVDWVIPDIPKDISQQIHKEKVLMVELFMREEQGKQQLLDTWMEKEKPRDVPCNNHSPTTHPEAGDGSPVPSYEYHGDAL
- assay-explanation: NFA inhibition of ANO1 current, intracellular application to inside-out patch
- Format: cell-based
- conditions-used: current induced by 20 µM Ca^2+; −40, −20, +20, +40 mV; read-out: half-blocking concentration (K1/2) of NFA
experimental-endpoint: IC50

[
  {
    "molecule": "O=C(O)c1cccnc1Nc1cccc(C(F)(F)F)c1 [NFA, niflumic acid]",
    "test-result": "18 to 20 µM"
  }
]

Recorded values, source paper PMC3906059.
